# target.or.system: human T-type calcium channels (human Cav3.2) (Homo sapiens)
# Construct: expressed in transfected cells
# run.description: Intracellular calcium (Fura2 fluorescence) assay in HEK293 cells stably expressing human Cav3.2
# Format: cell-based
# condition.notes: Fura2 fluorescence ratio after calcium chloride addition, 15 min with compound
measurement.kind: pIC50
Kindly note that pIC50 refers to -log10 of the concentration in mol/L and answer with the value alone.

Answered examples (4):
CCOC(c1ccc2c(c1)OC(F)(F)O2)c1nc2cc(F)ccc2[nH]1 (stereo not drawn) [Example 32] :: 6.20
OC(c1ccc(OC(F)(F)C(F)F)cc1)c1nc2cc(F)ccc2[nH]1 (stereo not drawn) [Example 6] :: 6.23
OC(c1ccc(C(F)(F)F)cc1)c1nc2cc(F)ccc2[nH]1 (stereo not drawn) [Example 4] :: 6.19
CCCSc1ccc2[nH]c(C(O)c3ccc(OC(F)(F)F)cc3)nc2c1 (stereo not drawn) [Example 47] :: 6.23

Form field pIC50, entry OC(c1ccc(OC(F)(F)F)cc1)c1nc2cc(F)ccc2[nH]1 (stereo not drawn) [Example 1] : 6.49

The molecule listed as OC(c1ccc(C(F)(F)F)c(F)c1)c1nc2cc(F)ccc2[nH]1 (stereo not drawn) [Example 5] has a reported pIC50 of 6.68

====

# target.or.system: human T-type calcium channels (human Cav3.2) (Homo sapiens)
# Construct: expressed in transfected cells
# run.description: Intracellular calcium (Fura2 fluorescence) assay in HEK293 cells stably expressing human Cav3.2
# Assay type: cell-based
# condition.notes: Fura2 fluorescence ratio after calcium chloride addition, 15 min with compound
measurement.kind: pIC50
Value format note: pIC50 is -log10 of concentration (mol/L); just state the number.

Take a look at these entries with their results.
OC(c1ccc2c(c1)OC(F)(F)O2)c1nc2cc(F)ccc2[nH]1 (stereo not drawn) [Example 16] :: 6.31
OC(c1ccc(OC(F)(F)F)cc1)c1nc2ccc(Cl)nc2[nH]1 (stereo not drawn) [Example 46] :: 6.66
CCOC(c1ccc(OC(F)(F)F)c(F)c1)c1nc2cc(F)ccc2[nH]1 (stereo not drawn) [Example 29] :: 6.43
OC(c1ccc2c(c1)OC(F)(F)O2)c1nc2cc(Cl)cnc2[nH]1 (stereo not drawn) [Example 50] :: 7.30
CCOC(c1ccc(C(F)(F)F)cc1)c1nc2cc(F)ccc2[nH]1 (stereo not drawn) [Example 27] :: 6.04
CCOc1ccc2[nH]c(C(OCC)c3ccc(SC(F)(F)F)cc3)nc2c1 (stereo not drawn) [Example 91] :: 6.02
OC(c1ccc(OC(F)(F)F)cc1)c1nc2cc(Br)ccc2[nH]1 (stereo not drawn) [Example 112] :: 6.43
CCOC(c1ccc(OC(F)(F)F)cc1)c1nc2cc(Cl)cnc2[nH]1 (stereo not drawn) [Example 53] :: 6.77
COC(c1ccc(OC(F)(F)F)cc1)c1nc2cc(F)ccc2[nH]1 (stereo not drawn) [Example 89] :: 6.11
OC(c1ccc(OC(F)(F)F)c(F)c1)c1nc2cc(F)ccc2[nH]1 (stereo not drawn) [Example 12] :: 7.00

Entry under test: OC(c1ccc(OC(F)(F)F)c(Br)c1)c1nc2cc(F)ccc2[nH]1 (stereo not drawn) [Example 13] . Its pIC50 was 6.57

====

# target.or.system: human T-type calcium channels (human Cav3.2) (Homo sapiens, UniProt O95180)
# Construct: expressed in transfected cells
# Sequence (O95180 whole entry): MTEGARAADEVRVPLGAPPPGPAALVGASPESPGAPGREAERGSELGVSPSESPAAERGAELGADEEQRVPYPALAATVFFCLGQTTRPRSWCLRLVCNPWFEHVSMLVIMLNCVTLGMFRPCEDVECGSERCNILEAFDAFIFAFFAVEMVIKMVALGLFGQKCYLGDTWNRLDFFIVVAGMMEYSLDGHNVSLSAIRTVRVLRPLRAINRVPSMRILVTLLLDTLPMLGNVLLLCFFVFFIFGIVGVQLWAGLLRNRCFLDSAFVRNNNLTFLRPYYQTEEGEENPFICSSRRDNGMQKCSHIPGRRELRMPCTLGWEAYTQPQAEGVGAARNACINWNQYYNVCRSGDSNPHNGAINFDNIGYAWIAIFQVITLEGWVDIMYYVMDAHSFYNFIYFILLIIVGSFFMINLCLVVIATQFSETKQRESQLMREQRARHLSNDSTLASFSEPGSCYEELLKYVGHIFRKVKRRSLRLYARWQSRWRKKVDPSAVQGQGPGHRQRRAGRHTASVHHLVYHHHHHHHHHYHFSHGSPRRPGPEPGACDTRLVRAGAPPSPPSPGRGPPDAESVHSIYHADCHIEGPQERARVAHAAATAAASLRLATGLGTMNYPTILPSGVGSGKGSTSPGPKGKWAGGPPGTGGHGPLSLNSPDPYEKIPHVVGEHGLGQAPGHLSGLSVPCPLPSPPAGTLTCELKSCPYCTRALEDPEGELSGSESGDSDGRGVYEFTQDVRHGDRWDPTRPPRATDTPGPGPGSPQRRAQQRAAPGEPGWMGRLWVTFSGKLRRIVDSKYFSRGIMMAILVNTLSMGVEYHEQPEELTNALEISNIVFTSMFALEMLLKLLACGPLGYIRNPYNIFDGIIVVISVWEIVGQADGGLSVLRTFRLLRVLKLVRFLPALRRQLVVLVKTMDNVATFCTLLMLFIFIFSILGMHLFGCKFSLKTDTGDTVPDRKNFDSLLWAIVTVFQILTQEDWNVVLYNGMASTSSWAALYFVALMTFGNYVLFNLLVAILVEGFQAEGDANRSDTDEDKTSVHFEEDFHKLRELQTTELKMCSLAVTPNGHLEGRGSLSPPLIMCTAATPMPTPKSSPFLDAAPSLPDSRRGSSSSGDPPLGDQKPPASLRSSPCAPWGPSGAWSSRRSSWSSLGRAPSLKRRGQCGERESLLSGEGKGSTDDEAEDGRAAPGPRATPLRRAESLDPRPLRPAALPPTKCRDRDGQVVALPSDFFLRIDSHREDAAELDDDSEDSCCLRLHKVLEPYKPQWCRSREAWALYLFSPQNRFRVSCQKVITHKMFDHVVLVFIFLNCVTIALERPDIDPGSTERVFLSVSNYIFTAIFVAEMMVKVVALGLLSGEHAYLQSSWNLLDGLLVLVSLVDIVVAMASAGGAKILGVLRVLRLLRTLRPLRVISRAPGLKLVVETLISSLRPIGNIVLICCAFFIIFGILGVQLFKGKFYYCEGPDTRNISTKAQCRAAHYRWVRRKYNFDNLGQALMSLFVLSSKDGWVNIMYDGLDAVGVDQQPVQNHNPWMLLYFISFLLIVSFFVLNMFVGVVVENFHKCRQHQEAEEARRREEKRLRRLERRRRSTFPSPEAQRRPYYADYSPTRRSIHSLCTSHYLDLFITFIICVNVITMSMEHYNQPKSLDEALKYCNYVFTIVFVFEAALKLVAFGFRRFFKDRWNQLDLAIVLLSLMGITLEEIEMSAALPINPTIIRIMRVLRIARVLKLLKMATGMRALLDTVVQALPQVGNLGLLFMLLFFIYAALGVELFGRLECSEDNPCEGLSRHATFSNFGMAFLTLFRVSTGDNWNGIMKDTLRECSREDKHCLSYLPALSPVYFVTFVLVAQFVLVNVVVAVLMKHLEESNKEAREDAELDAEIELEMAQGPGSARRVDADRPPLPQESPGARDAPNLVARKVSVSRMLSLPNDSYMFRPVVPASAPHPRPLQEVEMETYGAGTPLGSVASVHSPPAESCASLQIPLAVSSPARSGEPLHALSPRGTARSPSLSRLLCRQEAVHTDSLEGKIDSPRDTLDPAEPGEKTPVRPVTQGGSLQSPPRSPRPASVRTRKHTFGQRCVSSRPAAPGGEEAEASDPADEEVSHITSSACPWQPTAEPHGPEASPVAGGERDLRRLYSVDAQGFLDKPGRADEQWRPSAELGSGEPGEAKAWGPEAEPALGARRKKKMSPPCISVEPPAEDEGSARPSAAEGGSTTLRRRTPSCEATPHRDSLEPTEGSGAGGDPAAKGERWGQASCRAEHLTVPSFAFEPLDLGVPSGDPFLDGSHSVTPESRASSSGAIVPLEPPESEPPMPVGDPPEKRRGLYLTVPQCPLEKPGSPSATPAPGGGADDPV
# run.description: Intracellular calcium (Fura2 fluorescence) assay in HEK293 cells stably expressing human Cav3.2
# Type: cell-based
# condition.notes: Fura2 fluorescence ratio after calcium chloride addition, 15 min with compound
# Experimental: Representative compounds of the present invention were tested on the selective antagonistic effect against T-type calcium channels (Cav3.2) by way of the following Test Example. […] HEK293 cells in which human Cav3.2 were stably expressed were cultured at 37° C. in Alpha-MEM containing 10% (v/v) fetal bovine serum (FBS), penicillin (100 U/mL), streptomycin (100 μg/mL) and G418 (250 μg/mL). […] Thus, the fluorescence intensity ratios obtainable at the respective wavelengths were calculated. […]
Just a reminder that ties go to Not satisfied: only IC50 strictly below 500 nM counts as Satisfied.

Consider the worked cases shown below.
CCOC(c1ccc(OCc2ccc(F)cc2)cc1)c1nc2cc(Cl)cnc2[nH]1 (stereo not shown) :: Not satisfied
CCOC(c1ccc(OC(F)(F)F)cc1)c1nc2cc(F)ccc2[nH]1 (stereo not shown) :: Not satisfied
N#Cc1ccc2[nH]c(C(O)c3ccc(OC(F)(F)F)cc3)nc2c1 (stereo not shown) :: Satisfied
CCOC(c1ccc(OC(F)(F)F)cc1)c1nc2cc(C#N)ccc2[nH]1 (stereo not shown) :: Not satisfied
OC(c1ccc(SC(F)(F)F)cc1)c1nc2cc(F)ccc2[nH]1 (stereo not shown) :: Satisfied

Would you kindly verify if IC50 of OC(c1ccc(OC(F)(F)F)cc1)c1nc2cccnc2[nH]1 (stereo not shown) is strictly less than 500 nM? Satisfied

Identify whether the compound OC(c1ccc(OC(F)(F)F)cc1)c1nc2cc(Cl)cnc2[nH]1 (stereo not shown) records IC50 below 500 nM. Satisfied
